Source: ChEMBL document CHEMBL3352436

- Tested target: Somatostatin receptor type 4 (Homo sapiens, UniProt P31391)
- Sequence (P31391 whole entry): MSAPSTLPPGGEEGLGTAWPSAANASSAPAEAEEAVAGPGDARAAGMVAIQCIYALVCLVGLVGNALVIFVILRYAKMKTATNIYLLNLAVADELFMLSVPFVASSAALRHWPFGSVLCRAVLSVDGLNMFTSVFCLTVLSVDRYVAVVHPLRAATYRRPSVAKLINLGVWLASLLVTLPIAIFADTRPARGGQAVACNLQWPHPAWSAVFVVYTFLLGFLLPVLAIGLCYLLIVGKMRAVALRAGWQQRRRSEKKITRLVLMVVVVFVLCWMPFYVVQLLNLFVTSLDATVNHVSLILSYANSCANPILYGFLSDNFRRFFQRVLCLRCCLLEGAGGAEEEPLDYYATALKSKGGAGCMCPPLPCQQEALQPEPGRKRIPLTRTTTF
pKi: −log10 of the molar value.
Endpoint: pKi

IN: For `CN1CCc2c(c3cccc4c3n2CCc2ccccc2-4)C1` , what is its reported pKi?
OUT: < 5.00

====

- Assay info: Binding affinity to strychnine-insensitive glycine receptor (unknown origin)
- Parameters: species or system Homo sapiens
Endpoint: Ki

IN: For `CN1CCc2c(c3cccc4c3n2CCc2ccccc2-4)C1` , what is its reported Ki?
OUT: > 10 µM

====

- Assay info: AUC (0 to t) in CD rat at 27 mg/kg, iv
- Type: ADME, organism-based
- Set-up: dose 27 mg/kg, route intravenous
- Assay setup: plasma
Endpoint: AUC(0-t) (ng·h/mL)
All answers are understood in ng·h/mL, so give the number only.

IN: For `COc1ccc2c(c1)c(CC(=O)O)c(C)n2C(=O)c1ccc(Cl)cc1` , what is its reported AUC(0-t)?
OUT: 93800

====

- Assay info: Half life in CD rat at 27 mg/kg, iv
- Type: ADME, organism-based
- Set-up: dose 27 mg/kg, route intravenous
- Assay setup: in vivo
Endpoint: half-life (h)
All answers are understood in h, so give the number only.

IN: For COc1ccc2c(c1)c(CC(=O)O)c(C)n2C(=O)c1ccc(Cl)cc1 [INDOMETHACIN] , what is its reported half-life?
OUT: 5.99

====

- Assay info: Binding affinity to strychnine-sensitive glycine receptor (unknown origin)
- Set-up: species or system Homo sapiens
Endpoint: Ki

IN: For `CN1CCc2c(c3cccc4c3n2CCc2ccccc2-4)C1` , what is its reported Ki?
OUT: > 10 µM

====

- Assay info: Tmax in CD rat at 27 mg/kg, iv
- Format: ADME, organism-based
- Set-up: dose 27 mg/kg, route intravenous
- Assay setup: in vivo
Endpoint: Tmax (min)
All answers are understood in min, so give the number only.

IN: For `COc1ccc2c(c1)c(CC(=O)O)c(C)n2C(=O)c1ccc(Cl)cc1` , what is its reported Tmax?
OUT: 45

====

- Assay info: AUC (0 to t) in CD1 mouse at 5 mg/kg, po
- Assay type: ADME, organism-based
- Set-up: dose 5 mg/kg, route oral
- Assay setup: plasma
Endpoint: AUC(0-t) (ng·h/mL)
All answers are understood in ng·h/mL, so give the number only.

IN: For `CN1CCc2c(c3cccc4c3n2CCc2ccccc2-4)C1` , what is its reported AUC(0-t)?
OUT: 211

====

- Tested target: Cannabinoid receptor 1 (Homo sapiens, UniProt P21554)
- Sequence (P21554 whole entry): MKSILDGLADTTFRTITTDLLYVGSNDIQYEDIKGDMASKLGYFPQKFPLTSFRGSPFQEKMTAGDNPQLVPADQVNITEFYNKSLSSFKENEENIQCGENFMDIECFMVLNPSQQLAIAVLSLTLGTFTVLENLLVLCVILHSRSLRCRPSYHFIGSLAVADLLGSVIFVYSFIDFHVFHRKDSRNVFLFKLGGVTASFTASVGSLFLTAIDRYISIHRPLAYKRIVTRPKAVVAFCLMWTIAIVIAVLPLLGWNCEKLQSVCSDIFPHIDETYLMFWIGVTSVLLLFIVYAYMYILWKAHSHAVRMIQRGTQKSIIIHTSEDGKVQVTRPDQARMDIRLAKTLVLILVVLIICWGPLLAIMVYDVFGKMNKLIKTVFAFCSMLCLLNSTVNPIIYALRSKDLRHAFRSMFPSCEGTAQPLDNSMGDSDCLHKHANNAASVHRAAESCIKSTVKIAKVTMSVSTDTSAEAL
Endpoint: Ki

IN: For `CN1CCc2c(c3cccc4c3n2CCc2ccccc2-4)C1` , what is its reported Ki?
OUT: > 10 µM

====

- Assay info: Elimination rate constant in CD1 mouse at 5 mg/kg, po
- Format: ADME, organism-based
- Set-up: dose 5 mg/kg, route oral
- Assay setup: in vivo
Endpoint: k el (s⁻¹)
All answers are understood in s⁻¹, so give the number only.

IN: For `CN1CCc2c(c3cccc4c3n2CCc2ccccc2-4)C1` , what is its reported k el?
OUT: 0.000103

====

- Assay info: Cmax in CD rat at 27 mg/kg, iv
- Type: ADME, organism-based
- Design: dose 27 mg/kg, route intravenous
- Assay setup: in vivo
Endpoint: Cmax (ng/mL)
All answers are understood in ng/mL, so give the number only.

IN: For COc1ccc2c(c1)c(CC(=O)O)c(C)n2C(=O)c1ccc(Cl)cc1 [INDOMETHACIN] , what is its reported Cmax?
OUT: 10400
